Record set: Ki | 5-hydroxytryptamine receptor 5A (Homo sapiens) | literature, multiple sources.

# COMPOUND, RESULT_UNIT, INEQUALITY_OPERATOR, Ki
measured = [
    ("COc1ccccc1-c1cc(C2CCNC2)ccc1Cl (stereo unspecified)", "nM", "=", 970),
    ("CCCNCc1ccc(Cl)c(-c2ccccc2OC)c1", "nM", "=", 120),
    ("c1ccc2cc(-c3nccc4c3[nH]c3ccccc34)ccc2c1", "nM", "=", 1500),
    ("c1ccc(-c2ccc(N3CCN(Cc4c[nH]c5ncccc45)CC3)cc2)cc1", "nM", ">", 10000),
    ("CNCc1ccc(Cl)c(-c2ccccc2OC)c1", "nM", "=", 420),
    ("CN(C)CCN(Cc1ccc(-c2ccc(CNCCc3ccccc3)cc2)cc1)C(=O)C1CC1c1ccccc1 (stereo unspecified)", "nM", "=", 79.4),
    ("COc1c(OCCF)cccc1C(=O)C1CCN(CCc2ccc([N+](=O)[O-])cc2)CC1", "nM", ">", 10000),
    ("N#Cc1cc(F)cc(C#Cc2csc(CF)n2)c1", "nM", ">", 10000),
    ("COc1ccc(C2NCCc3c2[nH]c2ccc(Cl)cc32)c(O)c1 (stereo unspecified)", "nM", "=", 177),
    ("Cc1ccc2c(OCCN3CCC(Cc4cccc(N5CCCS5(=O)=O)c4)CC3)cccc2n1", "nM", "=", 1580),
    ("CN(C)CCN(Cc1ccc(-c2ccc(CNCCc3ccccc3)cn2)cc1)C(=O)CCC1CCCC1", "nM", "=", 12.6),
]

###

Record set: pKi | 5-hydroxytryptamine receptor 5A (Homo sapiens) | literature, multiple sources.
pKi: −log10 of the molar value.

# COMPOUND, INEQUALITY_OPERATOR, pKi
rows = [
    ("COc1cc(OC)c(C2NCCc3c2[nH]c2ccc(F)cc32)cc1OC (stereo not given)", "=", 5.55),
    ("CN1CCc2c(c3cccc4c3n2Cc2ccccc2C4)C1", "<", 5.00),
    ("COc1ccccc1-c1cc(CN(C)C)ccc1Cl", "=", 6.66),
    ("COc1cc(OC)c(C2NCCc3c2[nH]c2ccc(Cl)cc32)cc1OC (stereo not given)", "=", 7.16),
    ("COc1c(OCCF)cccc1C(=O)C1CCN(CCc2ccc(F)cc2)CC1", "=", 5.80),
    ("CN(C)CCN(Cc1ccc(-c2ccc(CNCCc3ccccc3)cn2)cc1)C(=O)/C=C/c1ccccc1", "=", 8.30),
    ("COc1ccc(N2CCN(Cc3c[nH]c4ncccc34)CC2)cc1", "<", 5.00),
    ("CN(C)CCN(Cc1ccc(-c2ccc(CNCCc3ccccc3)cc2)cc1)S(=O)(=O)/C=C/c1ccccc1", "=", 6.60),
    ("Cn1c(=O)cnn(CCCCN2CCN(c3ccccc3OCCF)CC2)c1=O", "=", 5.67),
    ("OCCOCCN1CCN(C2=Nc3ccccc3Sc3ccccc32)CC1", "<", 6.00),
]

###

Record set: log10 Ki | 5-hydroxytryptamine receptor 5A (Homo sapiens, UniProt P47898) | literature, multiple sources.
READOUT_KIND: log10 Ki (log10 of the value in nM)

# COMPOUND, log10 Ki
rows = [
    ("Oc1ccc2[nH]c3c(-c4c[nH]c5ccccc45)nccc3c2c1", 2.23),
    ("O=C(CCC1CCCC1)N(Cc1ccc(-c2ccc(CNCCc3ccccc3)cc2)cc1)CC1CCCCN1 (stereo not given)", 1.40),
    ("CCOc1ccc(S(=O)(=O)Nc2ccc(Cl)cc2C#Cc2cnc(C(=O)O)cc2OC)c2ncccc12", 3.21),
    ("CCOC(=O)[C@@]12C[C@@H]1[C@@H](n1cnc3c(NC(C4CC4)C4CC4)nc(Cl)nc31)[C@@H]1OC(C)(C)O[C@@H]12", 3.94),
    ("Cc1ccc(-c2noc3c2CCNCC3)cc1", 3.06),
    ("CCOC(=O)c1cccc(NC2=NC(N(C)C)=NC3(CCCCC3)N2)c1", 2.77),
]

###

Record set: log10(Ki) | 5-hydroxytryptamine receptor 5A (Homo sapiens, UniProt P47898) | literature, multiple sources.
READOUT_KIND: log10(Ki) (log10 of the value in nM)

# MOLECULE_SMILES, REPORTED_VALUE
rows = [
    ("CCN(CC)Cc1ccc(Cl)c(-c2ccccc2OC)c1", 2.36),
    ("c1ccc(CCNCc2ccc(-c3cccc(CNC4CCN(Cc5ccccc5)CC4)c3)cc2)cc1", 2.30),
    ("CN(C)CCN(Cc1ccc(-c2ccc(CNCCOc3ccccc3)cc2)cc1)C(=O)CCC1CCCC1", 1.90),
    ("COc1ccccc1N1CCN(CCCCCC(=O)NCc2ccccc2-c2ccccc2Cl)CC1", 2.71),
    ("COCCNCc1ccc(-c2ccc(CN(Cc3cccnc3)C(=O)/C=C/c3ccccc3)cc2)cc1", 3.80),
]

###

Record set: log10(Ki) | 5-hydroxytryptamine receptor 5A (Homo sapiens) | literature, multiple sources.
READOUT_KIND: log10(Ki) (log10 of the value in nM)

# MOLECULE_SMILES, REPORTED_VALUE
data = [
    ("O=C(/C=C/c1ccccc1)N(Cc1ccc(-c2ccc(CNCCc3ccccc3)cc2)cc1)Cc1cccnc1", 1.70),
    ("CN(C)CCN(Cc1ccc(-c2ccc(CNCCc3ccccc3)cc2)cc1)C(=O)/C=C/c1ccccc1", 1.40),
    ("Cc1ccc2c(OCCN3CCN(Cc4cccc5cccnc45)CC3)cccc2n1", 3.50),
    ("CN(C)CCN(Cc1ccc(-c2ccc(CNCCc3ccccc3)cc2)nc1)C(=O)/C=C/c1ccccc1", 1.40),
    ("COc1ccc2[nH]c3c(-c4cn(C)c5ccccc45)nccc3c2c1", 2.00),
    ("CCNC(=O)c1cccc(NC2=NC(N)=NC3(CCCCC3)N2)c1", 3.00),
]

###

Record set: Ki | 5-hydroxytryptamine receptor 5A (Homo sapiens) | literature, multiple sources.
READOUT_KIND: Ki

# COMPOUND, TARGET_SYSTEM, READOUT_KIND, REPORTED_VALUE
data = [
    ("Fc1ccc(-c2n[nH]c3c2CCNCC3)cc1", "5-hydroxytryptamine receptor 5A (Homo sapiens)", "Ki", "> 10 µM"),
    ("N#Cc1cc(F)cc(C#Cc2csc(F)n2)c1", "5-hydroxytryptamine receptor 5A (Homo sapiens)", "Ki", "> 10 µM"),
    ("CCCCN1CCC(COC(=O)c2ccc(N)c(OC)c2)CC1", "5-hydroxytryptamine receptor 5A (Homo sapiens)", "Ki", "> 10 µM"),
    ("CNc1cc(-c2csc(N(C)C(=O)c3ccc(F)cc3)n2)ncn1", "5-hydroxytryptamine receptor 5A (Homo sapiens)", "Ki", "> 10 µM"),
    ("CN(C)[C@@H]1CCc2[nH]c3ccc(NC(=O)c4ccc(F)cc4)cc3c2C1", "5-hydroxytryptamine receptor 5A (Homo sapiens)", "Ki", "> 0.5 µM"),
    ("COc1c(OCCF)cccc1C(O)C1CCN(CCc2ccc(F)cc2)CC1 (stereo unspecified)", "5-hydroxytryptamine receptor 5A (Homo sapiens)", "Ki", "> 10 µM"),
]
